System: MS2 coat protein
Test: apparent KD of MS2 coat protein; designed switch direction (-1 OFF switch, 1 ON switch): 1; higher = weaker reporter binding
Conditions: input ligand: microRNA oligo, concentration not stated
Measurement kind: apparent KD of MS2 coat protein (µM)

AAGAAAUCCGCAGGAUAUCCUAAGCCGGGCUUAGGAGAAGGGUGGCCACAUGAGGAUCACCCAUGUAAAAGCUGAAUCACAGCC [Aerququ] (Eterna round: R96, puzzle: Same State NG 1) ... 0.388
GGAGCCGAUACUGAGGAUAUUCAUAUUAAAACAUGAGGAUCACCCAUGUAGGCCAGAAGGCCUUGGGAGAAGGCAGAUCGGCUCC [Biseusra - 4] (Eterna round: R96, puzzle: Same State 2) ... 0.207
UAGUGAUUGCAAGGAUAUGCUUAUGUUUAAUUUUUUUUAAUAUCUAACAUGAGGAUCACCCAUGUGCAGAAGGUGCUUGAUUUG [JR_SSNG2_Sub075] (Eterna round: R96, puzzle: Same State NG 2) ... 0.0542
